targetDesc: T1, human DR3 with the death domain deleted (ΔM339-P417 of SEQ ID NO:1), expressed on CHOK1SV cells (human, UniProt Q93038 25-338)
T1 construct: also called truncated DR3; hDR3 expressing CHO cells
T1 sequence: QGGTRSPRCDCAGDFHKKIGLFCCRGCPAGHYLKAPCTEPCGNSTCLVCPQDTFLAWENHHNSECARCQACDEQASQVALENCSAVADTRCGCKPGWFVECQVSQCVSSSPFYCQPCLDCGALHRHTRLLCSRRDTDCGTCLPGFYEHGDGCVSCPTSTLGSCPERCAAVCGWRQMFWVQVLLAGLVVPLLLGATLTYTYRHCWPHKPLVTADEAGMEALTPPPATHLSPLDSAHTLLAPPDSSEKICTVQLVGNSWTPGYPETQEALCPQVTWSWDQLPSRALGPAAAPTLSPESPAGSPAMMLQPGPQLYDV
protocolSummary: flow cytometry competition: Fab vs TL1A on hDR3-expressing CHO cells
readoutLabel: max percentage inhibition (%)

binder="0122 (chimeric Fab of 27F16, human IgG4 constant domain, hinge Cys->Ser) (Fab, V domains shown, murine variable domains, human IgG4 constant domain (IgG4-Ser), human kappa) VH: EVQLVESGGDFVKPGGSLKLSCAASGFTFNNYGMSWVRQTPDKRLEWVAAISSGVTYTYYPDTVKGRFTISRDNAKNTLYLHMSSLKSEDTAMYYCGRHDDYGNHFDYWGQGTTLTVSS VL: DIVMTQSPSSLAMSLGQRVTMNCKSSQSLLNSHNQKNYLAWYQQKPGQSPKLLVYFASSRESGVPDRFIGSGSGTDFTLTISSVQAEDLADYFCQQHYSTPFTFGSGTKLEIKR" resultnumber=33
